Below, each entry is listed with its recorded pIC50.
System: NTERA-2-cl-D1;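 further: inhibition of cell growth, measured with a cell viability assay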
procedure_summary: cells
Assay type: functional, cell-based, Homo sapiens
assay_conditions: Homo sapiens, NTERA-2-cl-D1
Description: SANGER: Inhibition of human NTERA-S-cl-D1 cell growth in a cell viability assay.
pIC50: −log10 of the molar value.

# smiles_string, measurement_target, relation_operator, pIC50
records = [
    ("NC1(c2ccc(-c3nc4ccn5c(=O)[nH]nc5c4cc3-c3ccccc3)cc2)CCC1", "NTERA-2-cl-D1", "<", 5.40),
    ("Cc1cc(N2CCOCC2)cc2[nH]c(-c3c(NC[C@@H](O)c4cccc(Cl)c4)cc[nH]c3=O)nc12", "NTERA-2-cl-D1", "=", 6.59),
    ("CN(NC(=O)CC(=O)NN(C)C(=S)c1ccccc1)C(=S)c1ccccc1", "NTERA-2-cl-D1", "=", 7.71),
    ("CN(C)CCOc1ccc(-c2nc(-c3ccncc3)c(-c3ccc4c(c3)CC/C4=N\\O)[nH]2)cc1", "NTERA-2-cl-D1", "<", 5.30),
]

The reported numbers originate from ChEMBL document CHEMBL1201861.
